Experimental target: HER2 WT (Homo sapiens)
Construct: endogenous in cells; host or cells: BT474
Sequence (P04626 23-1255): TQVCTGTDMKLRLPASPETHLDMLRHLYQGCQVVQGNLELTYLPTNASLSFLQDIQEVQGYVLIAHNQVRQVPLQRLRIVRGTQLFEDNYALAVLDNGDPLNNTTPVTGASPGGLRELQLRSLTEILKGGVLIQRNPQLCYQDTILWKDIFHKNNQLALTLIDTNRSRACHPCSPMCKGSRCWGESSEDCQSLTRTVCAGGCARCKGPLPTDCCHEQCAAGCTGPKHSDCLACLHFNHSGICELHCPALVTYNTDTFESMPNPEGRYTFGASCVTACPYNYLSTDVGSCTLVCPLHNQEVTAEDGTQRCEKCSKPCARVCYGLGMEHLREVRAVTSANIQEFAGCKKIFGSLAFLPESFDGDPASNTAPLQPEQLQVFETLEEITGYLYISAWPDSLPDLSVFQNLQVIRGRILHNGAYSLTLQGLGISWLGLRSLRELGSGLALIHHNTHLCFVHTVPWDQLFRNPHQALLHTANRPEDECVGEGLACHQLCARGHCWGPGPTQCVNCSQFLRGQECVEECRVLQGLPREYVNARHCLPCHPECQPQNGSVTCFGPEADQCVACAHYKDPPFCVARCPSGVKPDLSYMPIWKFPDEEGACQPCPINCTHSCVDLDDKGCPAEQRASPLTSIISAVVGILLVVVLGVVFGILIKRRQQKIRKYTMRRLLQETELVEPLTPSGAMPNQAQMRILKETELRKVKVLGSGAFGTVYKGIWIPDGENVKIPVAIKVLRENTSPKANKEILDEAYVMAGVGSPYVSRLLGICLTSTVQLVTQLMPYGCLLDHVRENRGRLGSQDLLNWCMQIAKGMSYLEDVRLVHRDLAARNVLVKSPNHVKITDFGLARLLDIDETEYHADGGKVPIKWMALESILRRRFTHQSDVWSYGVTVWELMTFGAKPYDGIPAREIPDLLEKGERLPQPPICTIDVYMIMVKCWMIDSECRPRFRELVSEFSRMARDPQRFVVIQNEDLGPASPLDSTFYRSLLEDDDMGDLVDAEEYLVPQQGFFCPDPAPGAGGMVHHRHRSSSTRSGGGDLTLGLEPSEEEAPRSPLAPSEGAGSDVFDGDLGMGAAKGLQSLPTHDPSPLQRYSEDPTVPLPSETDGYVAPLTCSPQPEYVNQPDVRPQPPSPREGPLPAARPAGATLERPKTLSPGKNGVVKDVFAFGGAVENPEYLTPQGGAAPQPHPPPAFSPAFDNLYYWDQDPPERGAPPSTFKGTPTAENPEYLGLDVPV
Measurement protocol: Assay for cell proliferation (CellTiterGlo), Activity for Inhibiting HER2
Type: cell-based
Recorded conditions: Table B, potency code; 3 days drug; read-out: HER2 WT
pIC50: −log10 of the molar value.
I'd appreciate it if you could supply pIC50 values for the items below.

Consider the following illustrative entries.
Output pIC50 of C=CC(=O)Nc1cc2c(Nc3ccc4c(cnn4Cc4cccc(F)c4)c3)ncnc2cc1OCCCN1CC2CC1CO2 (stereo not shown)
> 8.30

Output pIC50 of `C=CC(=O)Nc1cc2c(Nc3ccc4c(cnn4Cc4cccc(F)c4)c3)ncnc2cc1N(C)CCN(C)C`
7.52 to 7.70

Output pIC50 of `C=CC(=O)Nc1cc2c(Nc3ccc4c(cnn4Cc4cccc(F)c4)c3)ncnc2cc1OCCN1CCCCC1`
8.00 to 8.30

Output pIC50 of `C=CC(=O)Nc1cc2c(Nc3ccc4c(cnn4Cc4cccc(F)c4)c3)ncnc2cc1OCCN1CCOCC1`
> 8.30

Give pIC50 for each of the items listed below.
1. C=CC(=O)Nc1cc2c(Nc3ccc4c(cnn4Cc4cccc(F)c4)c3)ncnc2cc1N(C)CCCN1CC2CC1CO2 (stereo not shown)
2. C=CC(=O)Nc1cc2c(Nc3ccc4c(cnn4Cc4cccc(F)c4)c3)ncnc2cc1NCCN1CCOCC1
3. C=CC(=O)Nc1cc2c(Nc3ccc4c(cnn4Cc4cccc(F)c4)c3)ncnc2cc1OCCN(C)C
4. C=CC(=O)Nc1cc2c(Nc3ccc4c(cnn4Cc4cccc(F)c4)c3)ncnc2cc1C#CC(C)(C)N1CCN(C)CC1
5. C=CC(=O)Nc1cc2c(Nc3ccc4c(cnn4Cc4cccc(F)c4)c3)ncnc2cc1N(C)CCCN1CCOCC1
6. C=CC(=O)Nc1cc2c(Nc3ccc4c(cnn4Cc4cccc(F)c4)c3)ncnc2cc1N(C)CCN1CCOCC1

1. 7.70 to 8.00
2. 8.00 to 8.30
3. > 8.30
4. 8.00 to 8.30
5. 7.70 to 8.00
6. 7.52 to 7.70

----------
I'd appreciate it if you could supply pIC50 values for the items below.
Experimental target: EGFR WT (Homo sapiens, UniProt P00533)
Construct: endogenous in cells; host or cells: A431 (+H292)
Sequence (P00533 25-1210): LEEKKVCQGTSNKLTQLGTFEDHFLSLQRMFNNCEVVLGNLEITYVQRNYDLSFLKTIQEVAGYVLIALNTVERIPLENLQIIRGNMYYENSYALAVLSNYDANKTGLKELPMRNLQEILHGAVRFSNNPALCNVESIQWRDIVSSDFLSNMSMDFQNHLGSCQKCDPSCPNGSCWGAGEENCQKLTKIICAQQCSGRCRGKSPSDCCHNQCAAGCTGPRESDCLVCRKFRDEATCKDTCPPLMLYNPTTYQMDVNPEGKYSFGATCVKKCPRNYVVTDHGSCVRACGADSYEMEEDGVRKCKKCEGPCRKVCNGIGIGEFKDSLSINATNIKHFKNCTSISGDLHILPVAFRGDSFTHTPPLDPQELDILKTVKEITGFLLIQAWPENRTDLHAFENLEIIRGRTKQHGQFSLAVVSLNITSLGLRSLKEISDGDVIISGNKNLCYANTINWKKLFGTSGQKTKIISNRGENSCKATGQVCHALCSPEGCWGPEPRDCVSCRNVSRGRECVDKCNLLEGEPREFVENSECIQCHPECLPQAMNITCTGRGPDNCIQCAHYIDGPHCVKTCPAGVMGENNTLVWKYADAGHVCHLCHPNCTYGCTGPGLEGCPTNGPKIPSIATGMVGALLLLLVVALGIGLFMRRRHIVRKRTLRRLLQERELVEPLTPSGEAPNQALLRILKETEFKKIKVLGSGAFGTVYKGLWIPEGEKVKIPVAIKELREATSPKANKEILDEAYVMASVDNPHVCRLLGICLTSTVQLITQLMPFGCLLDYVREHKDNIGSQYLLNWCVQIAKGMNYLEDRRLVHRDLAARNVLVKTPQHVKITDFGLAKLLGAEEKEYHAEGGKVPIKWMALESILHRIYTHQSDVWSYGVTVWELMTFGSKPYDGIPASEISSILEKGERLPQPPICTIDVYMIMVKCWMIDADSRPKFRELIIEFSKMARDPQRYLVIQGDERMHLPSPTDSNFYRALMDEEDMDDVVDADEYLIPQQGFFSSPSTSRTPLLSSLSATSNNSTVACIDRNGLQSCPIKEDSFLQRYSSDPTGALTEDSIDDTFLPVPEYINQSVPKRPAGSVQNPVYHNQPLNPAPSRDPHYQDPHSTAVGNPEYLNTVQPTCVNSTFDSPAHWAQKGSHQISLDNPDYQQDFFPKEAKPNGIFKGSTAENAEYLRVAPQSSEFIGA
Measurement protocol: Assay for cell proliferation (CellTiterGlo), Activity for Inhibiting EGFR
Assay type: cell-based
Recorded conditions: Table A, potency code; 3 days drug
pIC50: −log10 of the molar value.

Consider the following illustrative entries.
Output pIC50 of `C=CC(=O)Nc1cc2c(Nc3ccc4c(cnn4Cc4cccc(F)c4)c3)ncnc2cc1C#CC(C)(C)N1CCN(C)CC1`
6.30 to 6.52

Output pIC50 of `C=CC(=O)Nc1cc2c(Nc3ccc4c(cnn4Cc4cccc(F)c4)c3)ncnc2cc1N(C)CCN1CCOCC1`
< 6.00

Give pIC50 for each of the items listed below.
1. C=CC(=O)Nc1cc2c(Nc3ccc4c(cnn4Cc4cccc(F)c4)c3)ncnc2cc1OCCN(C)C
2. C=CC(=O)Nc1cc2c(Nc3ccc4c(cnn4Cc4cccc(F)c4)c3)ncnc2cc1N(C)CCCN1CC2CC1CO2 (stereo not shown)
3. C=CC(=O)Nc1cc2c(Nc3ccc4c(cnn4Cc4cccc(F)c4)c3)ncnc2cc1OCCN1CCOCC1
4. C=CC(=O)Nc1cc2c(Nc3ccc4c(cnn4Cc4cccc(F)c4)c3)ncnc2cc1N(C)CCCN1CCOCC1

6.70 to 7.00
6.30 to 6.52
6.52 to 6.70
6.00 to 6.30

Output pIC50 of `C=CC(=O)Nc1cc2c(Nc3ccc4c(cnn4Cc4cccc(F)c4)c3)ncnc2cc1NCCN1CCOCC1`
6.52 to 6.70
